System: 282377-053-R-J1-PDC complex spheroid viability
procedure_summary: Anticancer human tumor 282377-053-R-J1-PDC patient-derived colon adenocarcinoma cell line growth inhibition [RAS]
run_conditions: second compound 0.00316 µM; first compound 0.316 µM; stronger effect = lower value
Strictly below 40% in viability, T/C: met. Otherwise: not met.

molecule: Cc1nc(N2CCC3(CC2)COC(C)C3N)c(CO)nc1Sc1ccnc(N)c1Cl (stereo not given) + C=CC(=O)N1CCN(c2nc(OCC3CCCN3C)nc3c(F)c(-c4nc(N)cc(C)c4C(F)(F)F)c(Cl)cc23)C(C)C1
category: not met
--
molecule: O=C(c1ccc(F)c(F)c1Nc1ccc(I)cc1F)N1CC(O)([C@@H]2CCCCN2)C1 + C=CC(=O)N1CCN(c2nc(OCC3CCCN3C)nc3c(F)c(-c4nc(N)cc(C)c4C(F)(F)F)c(Cl)cc23)C(C)C1
category: met

Below 40% on viability, T/C? Entry CCC(CC)c1cc(NC2CCC(N)C2)n2nccc2n1 (stereo not given) + C=CC(=O)N1CCN(c2nc(OCC3CCCN3C)nc3c(F)c(-c4nc(N)cc(C)c4C(F)(F)F)c(Cl)cc23)C(C)C1
not met

Strictly below 40%: is that where viability, T/C of Nc1ccn(C2OC(CO)C(O)C2(F)F)c(=O)n1 (stereo not given) + C=CC(=O)N1CCN(c2nc(OCC3CCCN3C)nc3c(F)c(-c4nc(N)cc(C)c4C(F)(F)F)c(Cl)cc23)C(C)C1 sits?
not met

is_below(viability, T/C, 40%) for CC(=O)OC12COC1CC(O)C1(C)C(=O)C(O)C3=C(C)C(OC(=O)C(O)C(NC(=O)OC(C)(C)C)c4ccccc4)CC(O)(C(OC(=O)c4ccccc4)C21)C3(C)C (stereo not given) + C=CC(=O)N1CCN(c2nc(OCC3CCCN3C)nc3c(F)c(-c4nc(N)cc(C)c4C(F)(F)F)c(Cl)cc23)C(C)C1 ?
met

====

Test system: 282377-053-R-J1-PDC complex spheroid viability
procedure_summary: Anticancer human tumor 282377-053-R-J1-PDC cell line growth inhibition [RAS];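 further: spheroids exposed to agents for seven days before readout; luminescence viability as percent of DMSO vehicle control wells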
run_conditions: second compound 0.00316 µM; first compound 1 µM; stronger effect = lower value
measure: viability, T/C (%)
Write the value in % as a bare number.

Use the examples below as a reference point.
compound: C[C@@H](NC(=O)c1ncnc(N)c1Cl)c1ncc(C(=O)Nc2cc(C(F)(F)F)c(Cl)cn2)s1 + C=CC(=O)N1CCN(c2nc(OCC3CCCN3C)nc3c(F)c(-c4nc(N)cc(C)c4C(F)(F)F)c(Cl)cc23)C(C)C1
study_target: 282377-053-R-J1-PDC complex spheroid viability
measure: viability, T/C
assay_value: 88.4

compound: CC1(O)CCCC1n1c(=O)c(C(F)F)cc2cnc(NC3CCN(S(C)(=O)=O)CC3)nc21 (configuration not stated) + C=CC(=O)N1CCN(c2nc(OCC3CCCN3C)nc3c(F)c(-c4nc(N)cc(C)c4C(F)(F)F)c(Cl)cc23)C(C)C1
study_target: 282377-053-R-J1-PDC complex spheroid viability
measure: viability, T/C
assay_value: 106

compound: CC(=O)OC12COC1CC(O)C1(C)C(=O)C(O)C3=C(C)C(OC(=O)C(O)C(NC(=O)OC(C)(C)C)c4ccccc4)CC(O)(C(OC(=O)c4ccccc4)C21)C3(C)C (configuration not stated) + C=CC(=O)N1CCN(c2nc(OCC3CCCN3C)nc3c(F)c(-c4nc(N)cc(C)c4C(F)(F)F)c(Cl)cc23)C(C)C1
study_target: 282377-053-R-J1-PDC complex spheroid viability
measure: viability, T/C
assay_value: 29.4

compound: CCC(CC)c1cc(NC2CCC(N)C2)n2nccc2n1 (configuration not stated) + C=CC(=O)N1CCN(c2nc(OCC3CCCN3C)nc3c(F)c(-c4nc(N)cc(C)c4C(F)(F)F)c(Cl)cc23)C(C)C1
study_target: 282377-053-R-J1-PDC complex spheroid viability
measure: viability, T/C
assay_value: 116

compound: NC1c2ccccc2OC12CCN(c1cnc3c(N4CCCc5ncccc54)n[nH]c3n1)CC2 (configuration not stated) + C=CC(=O)N1CCN(c2nc(OCC3CCCN3C)nc3c(F)c(-c4nc(N)cc(C)c4C(F)(F)F)c(Cl)cc23)C(C)C1
study_target: 282377-053-R-J1-PDC complex spheroid viability
measure: viability, T/C
assay_value: 95

compound: CC(C)NCC(C(=O)N1CCN(c2ncnc3c2C(C)CC3O)CC1)c1ccc(Cl)cc1 (configuration not stated) + C=CC(=O)N1CCN(c2nc(OCC3CCCN3C)nc3c(F)c(-c4nc(N)cc(C)c4C(F)(F)F)c(Cl)cc23)C(C)C1
study_target: 282377-053-R-J1-PDC complex spheroid viability
measure: viability, T/C
assay_value: 94.1

compound: O=C(c1ccc(F)c(F)c1Nc1ccc(I)cc1F)N1CC(O)([C@@H]2CCCCN2)C1 + C=CC(=O)N1CCN(c2nc(OCC3CCCN3C)nc3c(F)c(-c4nc(N)cc(C)c4C(F)(F)F)c(Cl)cc23)C(C)C1
study_target: 282377-053-R-J1-PDC complex spheroid viability
measure: viability, T/C
assay_value: 18.4

compound: Nc1ccn(C2OC(CO)C(O)C2(F)F)c(=O)n1 (configuration not stated) + C=CC(=O)N1CCN(c2nc(OCC3CCCN3C)nc3c(F)c(-c4nc(N)cc(C)c4C(F)(F)F)c(Cl)cc23)C(C)C1
study_target: 282377-053-R-J1-PDC complex spheroid viability
measure: viability, T/C
assay_value: 31.6

Look at this compound and give its reported viability, T/C. CCN1CCN(Cc2ccc(Nc3ncc(F)c(-c4cc(F)c5nc(C)n(C(C)C)c5c4)n3)nc2)CC1 + C=CC(=O)N1CCN(c2nc(OCC3CCCN3C)nc3c(F)c(-c4nc(N)cc(C)c4C(F)(F)F)c(Cl)cc23)C(C)C1
134
